# Assay Procedure: Immunosuppressive activity in human T cells assessed as inhibition of LFA1-mediated cell proliferation by mixed lymphocyte reaction assay
# Type: functional, cell-based
IC50: recorded values
Response body: numeric value in µM, unit text excluded.

Example entries begin here.
Quickly give me recorded IC50 for COc1ccc(-c2cnc3nc(N)nc(N4CCN(c5ccc(C)cc5)CC4)c3n2)cc1OC
0.3

Quickly give me recorded IC50 for COc1ccc(-c2cnc3nc(N)nc(NCCc4ccccc4)c3n2)cc1OC
6

Quickly give me recorded IC50 for CCOc1nc(N)nc2ncc(-c3ccc(CC)cc3)nc12
8.2

Let us examine a further case.
Quickly give me recorded IC50 for COc1ccc(-c2cnc3nc(N)nc(N4CCN(Cc5ccccc5F)CC4)c3n2)cc1OC
0.7

----------
# Assay Procedure: Immunosuppressive activity in human T cells assessed as inhibition of LFA1-mediated cell proliferation by mixed lymphocyte reaction assay
# Assay type: functional, cell-based
IC50: recorded values

Example entries begin here.
Quickly give me recorded IC50 for CC(C)Oc1nc(N)nc2ncc(-c3ccc(C#N)cc3)nc12
> 10 µM

Quickly give me recorded IC50 for CCOc1nc(N)nc2ncc(-c3ccc(C#N)cc3)nc12
> 10 µM

Quickly give me recorded IC50 for CCOc1nc(N)nc2ncc(-c3ccc(Cl)c(Cl)c3)nc12
> 10 µM

***
Quickly give me recorded IC50 for CC(C)Oc1nc(N)nc2ncc(-c3ccc(C(F)(F)F)cc3)nc12
> 10 µM
